Tested on: SMMC-7721
EXPERIMENTAL DETAILS: CellTiter-Glo luminescent cell viability assay
Format: cell-based
TEST PARAMETERS: 120 h incubation, read-out: Anti-proliferative activity IC50 SMMC-7721
EXPERIMENTAL ENDPOINT: IC50 (µM)
State just the number; it will be interpreted in µM.

Query: For the record `Cc1ccc(NC(=O)c2ccco2)cc1Oc1nccc(-c2cc3ccccc3o2)n1` , what value of IC50 is listed for SMMC-7721?
Result: 0.7

Query: For the record `Cc1ccc(C(=O)Nc2ccc(C)c(Oc3nccc(-c4ccccc4)n3)c2)cc1` , what value of IC50 is listed for SMMC-7721?
Result: 6

Query: For the record `Cc1ccc(NC(=O)c2ccc([N+](=O)[O-])cc2)cc1Oc1nccc(-c2ccccc2)n1` , what value of IC50 is listed for SMMC-7721?
Result: 7.5

Query: For the record `Cc1ccc(NC(=O)c2cccs2)cc1Oc1nccc(-c2cccc3ccccc23)n1` , what value of IC50 is listed for SMMC-7721?
Result: 16.8

Query: For the record `Cc1ccc(NC(=O)c2ccco2)cc1Oc1nccc(-c2cc3ccccc3n2C)n1` , what value of IC50 is listed for SMMC-7721?
Result: 18.4

Query: For the record `Cc1ccc(NC(=O)c2ccc(Cl)cc2)cc1Oc1nccc(-c2ccco2)n1` , what value of IC50 is listed for SMMC-7721?
Result: 8.2

Query: For the record `COc1ccc(C(=O)Nc2ccc(C)c(Oc3nccc(-c4ccco4)n3)c2)cc1` , what value of IC50 is listed for SMMC-7721?
Result: 7.9

Query: For the record `Cc1cccc(C(=O)Nc2ccc(C)c(Oc3nccc(-c4ccccc4)n3)c2)c1` , what value of IC50 is listed for SMMC-7721?
Result: 6.2

Query: For the record `Cc1ccc(NC(=O)c2cccc(Cl)c2)cc1Oc1nccc(-c2ccccc2)n1` , what value of IC50 is listed for SMMC-7721?
Result: 17

Query: For the record `Cc1ccc(NC(=O)c2ccoc2)cc1Oc1nccc(-c2cc3ccccc3o2)n1` , what value of IC50 is listed for SMMC-7721?
Result: 0.4
